The reported measurements were obtained from PubChem BioAssay AID2060330.

System: LG0703-F948-PDC spheroids with HUVEC/MSC, viability;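 further: spheroids exposed to compounds for seven days before readout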
Test: Anticancer human tumor LG0703-F948-PDC patient-derived lung adenocarcinoma cell line growth inhibition [IpAb]
Settings: second compound 0.1 µM; first compound 0.0316 µM; hits give low values
# note: boundary value 90% maps to condition not met; viability, T/C below it maps to condition met

Would you please look over these solved cases?
molecule	assigned.class
COc1c(OCCCN2CCOCC2)ccc2c3n(c(=NC(=O)c4cnc(N)nc4)nc12)CCN3 + CCN1CCN(Cc2ccc(Nc3ncc(F)c(-c4cc(F)c5nc(C)n(C(C)C)c5c4)n3)nc2)CC1	condition met
CC(C)n1nc(-c2ccc3oc(N)nc3c2)c2c(N)ncnc21 + CC(C)NCC(C(=O)N1CCN(c2ncnc3c2C(C)CC3O)CC1)c1ccc(Cl)cc1	condition met
C=CCn1c(=O)c2cnc(Nc3ccc(N4CCN(C)CC4)cc3)nc2n1-c1cccc(C(C)(C)O)n1 + CCN1CCN(Cc2ccc(Nc3ncc(F)c(-c4cc(F)c5nc(C)n(C(C)C)c5c4)n3)nc2)CC1	condition not met
C=CCn1c(=O)c2cnc(Nc3ccc(N4CCN(C)CC4)cc3)nc2n1-c1cccc(C(C)(C)O)n1 + CC(C)NCC(C(=O)N1CCN(c2ncnc3c2C(C)CC3O)CC1)c1ccc(Cl)cc1	condition not met
CCCS(=O)(=O)Nc1ccc(F)c(C(=O)c2c[nH]c3ncc(-c4ccc(Cl)cc4)cc23)c1F + CC(C)NCC(C(=O)N1CCN(c2ncnc3c2C(C)CC3O)CC1)c1ccc(Cl)cc1	condition met
CC(C)n1nc(-c2ccc3oc(N)nc3c2)c2c(N)ncnc21 + CCN1CCN(Cc2ccc(Nc3ncc(F)c(-c4cc(F)c5nc(C)n(C(C)C)c5c4)n3)nc2)CC1	condition met

// next entry
Is viability, T/C of Cn1nccc1Nc1nccc(-c2ccn(C(CO)c3ccc(Cl)c(F)c3)c(=O)c2)n1 (centres undefined) + CCN1CCN(Cc2ccc(Nc3ncc(F)c(-c4cc(F)c5nc(C)n(C(C)C)c5c4)n3)nc2)CC1 strictly below 90%?
condition met
